Tested on: A549 NSCLC
Test: NCI tumour cell line growth inhibition, 48 h
We begin with a simple list: items and their reported TGI.
Assay readout: TGI

> print(dat)
                                   compound     value
1  CC1OC(n2cc(F)c(=O)[nH]c2=O)C(O[Si](C)(C)C(C)(C)C)C1O[Si](C)(C)C(C)(C)C (centres undefined)   54.2 µM
2  O=c1c(Cc2ccccc2)c(-c2ccccc2)[nH]n1C1=NCCN1  > 100 µM
3  COC(=O)/C(=N\NC(=S)NN)C(C(=O)C(=O)Nc1ccccc1C(N)=O)c1nc2ccccc2[nH]c1=O (centres undefined)  > 100 µM
4  O=C(/C=C1\C[C@H]2C=Nc3ccccc3C(=O)N2C1)NCCCCCNC(=O)/C=C1\C[C@H]2C=Nc3ccccc3C(=O)N2C1   54.6 µM
5  C[C@H]1CCC/C=C/[C@@H]2C[C@H](N)C[C@H]2[C@H](O)/C=C/C(=O)O1  > 100 µM
6                    CC1=NC(C)(C)N(O)C1(C)C  > 100 µM
7  CN(C)CCNC(=O)Nc1c(C#N)[n+]([O-])c2cc(Cl)c(Cl)cc2[n+]1[O-]  > 100 µM
8  Cn1c(N)nc2c(nc(OCc3ccccc3)n2C2OC(CO)C(O)C2O)c1=O (centres undefined)  > 100 µM
9  O=C(c1ccccc1)[C@H]1Nc2cnccc2C2c3ccccc3CC21 (some centres undefined)   74.5 µM
